These measurements were taken from ChEMBL document CHEMBL1131059.

tested_target: Adenosine receptor A2a (Rattus norvegicus, UniProt P30543)
Sequence (P30543 whole entry): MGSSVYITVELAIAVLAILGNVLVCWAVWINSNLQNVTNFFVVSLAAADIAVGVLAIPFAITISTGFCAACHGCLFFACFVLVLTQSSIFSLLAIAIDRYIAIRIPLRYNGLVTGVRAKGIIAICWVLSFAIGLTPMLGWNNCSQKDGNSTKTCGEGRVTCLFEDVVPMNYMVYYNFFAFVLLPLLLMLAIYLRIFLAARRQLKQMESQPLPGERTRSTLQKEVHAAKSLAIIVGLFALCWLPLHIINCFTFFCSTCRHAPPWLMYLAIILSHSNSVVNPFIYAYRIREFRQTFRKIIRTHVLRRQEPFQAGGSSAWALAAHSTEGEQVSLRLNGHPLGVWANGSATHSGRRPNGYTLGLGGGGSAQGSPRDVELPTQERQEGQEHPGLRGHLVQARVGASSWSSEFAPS
observation_type: log10(Ki) (log10 of the value in nM)
Scale: decimal log of Ki, Ki in nM.

Answered examples (3):
* CCCOc1ccc(NC(=O)Nc2ncnc3c2ncn3C2O[C@H](C(=O)NCC)[C@@H](O)[C@H]2O)cc1 (some centres not stated) | 2.41
* CCNC(=O)[C@H]1O[C@@H](n2cnc3c(NC(=O)Nc4ccc(NS(=O)(=O)c5ccccn5)cc4)ncnc32)[C@H](O)[C@@H]1O | 2.87
* CCNC(=O)[C@H]1O[C@@H](n2cnc3c(NC(=O)c4ccccc4Cl)ncnc32)[C@H](O)[C@@H]1O | 3.29

**Query** Lookup: log10(Ki) / Adenosine receptor A2a (Rattus norvegicus, UniProt P30543) / `CCNC(=O)[C@H]1O[C@@H](n2cnc3c(NC(=O)Nc4cccc(Cl)c4)nc(I)nc32)[C@H](O)[C@@H]1O`
**Result** 4.03

**Query** Lookup: log10(Ki) / Adenosine receptor A2a (Rattus norvegicus, UniProt P30543) / `CCNC(=O)[C@H]1O[C@@H](n2cnc3c(NC(=O)Nc4ccc(OC)cc4)nc(Cl)nc32)[C@H](O)[C@@H]1O`
**Result** 1.77

**Query** Lookup: log10(Ki) / Adenosine receptor A2a (Rattus norvegicus, UniProt P30543) / `CCCCC#Cc1nc(NC(=O)Nc2ccc(OC)cc2)c2ncn([C@@H]3O[C@H](C(=O)NCC)[C@@H](O)[C@H]3O)c2n1`
**Result** 3.37

**Query** Lookup: log10(Ki) / Adenosine receptor A2a (Rattus norvegicus, UniProt P30543) / CCNC(=O)[C@H]1OC(n2cnc3c(NC(=O)Nc4ccc(NS(=O)(=O)c5cc(C)on5)cc4)ncnc32)[C@H](O)[C@@H]1O (some centres not stated)
**Result** 2.99

**Query** Lookup: log10(Ki) / Adenosine receptor A2a (Rattus norvegicus, UniProt P30543) / `CCCCC#Cc1nc(NC(=O)Nc2cccc(Cl)c2)c2ncn([C@@H]3O[C@H](C(=O)NCC)[C@@H](O)[C@H]3O)c2n1`
**Result** 3.85

* * *

tested_target: Adenosine receptors; A1 & A3 (Rattus norvegicus) (UniProt P25099+P28647)
procedure_text: Selectivity for binding affinity towards A1 adenosine receptor in rat brain membrane and rat A3 receptor expressed in CHO cells.
Assay type: cell-based
observation_type: Ratio
Just the number, please, no unit after it.

Answered examples (8):
• CCNC(=O)[C@H]1O[C@@H](n2cnc3c(NC(=O)N[C@@H](C)c4ccccc4)ncnc32)[C@H](O)[C@@H]1O = 1.7
• CCCCC#Cc1nc(NC(=O)Nc2ccc(OC)cc2)c2ncn([C@@H]3O[C@H](C(=O)NCC)[C@@H](O)[C@H]3O)c2n1 = 2
• CCNC(=O)[C@H]1O[C@@H](n2cnc3c(NC(=O)Nc4nncs4)ncnc32)[C@H](O)[C@@H]1O = 0.037
• CCNC(=O)[C@H]1O[C@@H](n2cnc3c(NC(=O)Nc4ccc(OC)cc4)nc(C#CC(O)c4ccccc4)nc32)[C@H](O)[C@@H]1O (stereo not given in full) = 0.23
• CCNC(=O)[C@H]1O[C@@H](n2cnc3c(NC(=O)Nc4ccc(OC)cc4)nc(Cl)nc32)[C@H](O)[C@@H]1O = 1.2
• CCNC(=O)[C@H]1O[C@@H](n2cnc3c(NC(=O)Nc4ccc(S(N)(=O)=O)cc4)ncnc32)[C@H](O)[C@@H]1O = 47
• CCNC(=O)[C@H]1O[C@@H](n2cnc3c(NC(=O)NCCc4ccccc4)ncnc32)[C@H](O)[C@@H]1O = 0.86
• CCNC(=O)[C@H]1O[C@@H](n2cnc3c(NC(=O)NCc4ccccc4)ncnc32)[C@H](O)[C@@H]1O = 4.5

**Query** Given the compound CNC(=O)[C@H]1OC(n2cnc3c(NCc4cccc(I)c4Cl)ncnc32)[C@H](O)[C@@H]1O (stereo not given in full) , what is its reported Ratio?
**Result** 2500
